# hCRHR1 Luciferase Reporter Assay IC50 annotations
- tested.on: T1, corticotropin-releasing hormone (CRH) peptide (human and mouse (same sequence), not fully specified)
- T1 peptide: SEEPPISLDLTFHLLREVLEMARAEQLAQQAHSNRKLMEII
- assay.text: cell-based or functional assay
Provide the reading as a plain figure in nM.

Problem: Reported hCRHR1 Luciferase Reporter Assay IC50 for PR302341-46 (antibody, human IgG1, kappa, V domains shown) VH: QVQLVQSGAEVKKPGASVKVSCKASGYTFTDYFMKWVRQAPGQGLEWMGVINPNNADIFYNQKFKGRVTMTVDKSTSTAYMELSSLRSEDTAVYYCARGTDRALFAYWGQGTLVTVSS VL: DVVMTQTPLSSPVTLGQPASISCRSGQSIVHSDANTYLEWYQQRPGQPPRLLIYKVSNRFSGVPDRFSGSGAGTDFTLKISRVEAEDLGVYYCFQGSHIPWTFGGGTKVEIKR : what is it?
Solution: 1.27

Problem: Reported hCRHR1 Luciferase Reporter Assay IC50 for PR302341-56 (antibody, human IgG1, kappa, V domains shown) VH: QVQLVQSGAEVKKPGASVKVSCKASGYTFTDYFMKWVRQAPGQRLEWMGVINPNSGDIFYNQKFKGRVTITRDTSASTAYMELSSLRSEDTAVYYCARGTDRALFAYWGQGTLVTVSS VL: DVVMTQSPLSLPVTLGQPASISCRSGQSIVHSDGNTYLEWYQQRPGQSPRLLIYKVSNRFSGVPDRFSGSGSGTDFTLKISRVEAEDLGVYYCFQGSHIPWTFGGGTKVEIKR : what is it?
Solution: 0.738

Problem: Reported hCRHR1 Luciferase Reporter Assay IC50 for PR302341-67 (antibody, human IgG1, kappa, V domains shown) VH: QVQLVQSGAEVKKPGASVKVSCKASGYTFTDYFMKWVRQAPGQGLEWMGVINPNNGDIFYNQKFKGRVTMTVDKSTSTAYMELSSLRSEDTAVYYCARGTDRALFAYWGQGTLVTVSS VL: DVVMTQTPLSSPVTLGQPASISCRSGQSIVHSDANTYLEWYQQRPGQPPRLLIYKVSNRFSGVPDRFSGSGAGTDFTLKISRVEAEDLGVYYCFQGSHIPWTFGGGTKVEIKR : what is it?
Solution: 0.128

New cases:
Problem: Reported hCRHR1 Luciferase Reporter Assay IC50 for PR302341-37 (antibody, human IgG1, kappa, V domains shown) VH: QVQLVQSGAEVKKPGASVKVSCKASGYTFTDYFMKWVRQAPGQGLEWMGVINPNSGDIFYNQKFKGRVTMTVDKSISTAYMELSRLRSDDTAVYYCARGTDRALFAYWGQGTLVTVSS VL: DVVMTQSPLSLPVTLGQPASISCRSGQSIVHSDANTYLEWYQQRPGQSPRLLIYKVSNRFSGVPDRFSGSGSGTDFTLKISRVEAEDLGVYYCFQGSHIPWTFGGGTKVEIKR : what is it?
Solution: 0.792

Problem: Reported hCRHR1 Luciferase Reporter Assay IC50 for PR302341-23 (antibody, human IgG1, kappa, V domains shown) VH: QVQLVQSGAEVKKPGASVKVSCKASGYTFTDYFMKWVRQAPGQGLEWMGVINPNNGDIFYNQKFKGRVTMTVDKSISTAYMELSRLRSDDTAVYYCARGTDRALFAYWGQGTLVTVSS VL: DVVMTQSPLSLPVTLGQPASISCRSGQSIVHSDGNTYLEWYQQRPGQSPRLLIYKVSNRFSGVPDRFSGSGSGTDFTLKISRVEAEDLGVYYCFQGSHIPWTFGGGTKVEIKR : what is it?
Solution: 0.351
